System: Caspase 3
procedure_summary: Caspase 3 detection assay in SJSA1 cells
Type: cell-based
run_parameters: 30 μM, SJSA1, 48 h, Caspase 3 activation over DMSO-treated cells

molecule	caspase 30 μM
CCCC[C@H](NC(=O)[C@H](C)NC(=O)[C@H](C)NC(=O)[C@]1(C)CCCC=CCCCCCC[C@@](C)(NC(=O)[C@H](Cc2ccccc2)NC(=O)[C@@H](NC(=O)[C@H](CC(C)C)NC(C)=O)[C@@H](C)O)C(=O)N[C@@H](C)C(=O)N[C@@H](Cc2ccc(O)cc2)C(=O)N[C@@H](Cc2c[nH]c3ccccc23)C(=O)N[C@@H](C)C(=O)N[C@@H](C)C(=O)N[C@@H](CC(C)C)C(=O)N1)C(=O)N[C@@H](C(N)=O)C(C)C (single isomer, unassigned) [compound 80]	20

* * *

# reported caspase 3 μM; entries follow
Test system: Caspase 3
procedure_summary: Caspase 3 detection assay in SJSA1 cells
Assay type: cell-based
run_parameters: 3 μM, SJSA1, 48 h, Caspase 3 activation over DMSO-treated cells
Bridge positions count the residues as written; N and C are the ends. Square brackets hold non-standard residues; d marks the D form. Peptide text beside a SMILES is read from it. 2Nal = N[C@@H](Cc1ccc2ccccc2c1)C(=O)O; R8 = C=CCCCCCC[C@@](C)(N)C(=O)O; Cba = N[C@@H](CC1CCC1)C(=O)O; S5 = C=CCCC[C@](C)(N)C(=O)O

compound	caspase 3 μM
CC(=O)N[C@@H](CC(C)C)C(=O)N[C@H](C(=O)N[C@@H](Cc1ccccc1)C(=O)N[C@]1(C)CCCCCCC=CCCC[C@@](C)(C(=O)N[C@@H](CO)C(=O)N[C@@H](C)C(=O)N[C@@H](C)C(N)=O)NC(=O)[C@H](CC2CCC2)NC(=O)[C@H](CCC(N)=O)NC(=O)[C@H](C)NC(=O)[C@H](Cc2ccc3ccccc3c2)NC(=O)[C@H](Cc2ccc(O)cc2)NC(=O)[C@H](CCC(=O)O)NC1=O)[C@@H](C)O [compound 254] (Ac-LTF[R8]EY[2Nal]AQ[Cba][S5]SAA-NH2; staple 4-11)	7
CC(=O)N[C@@H](CC(C)C)C(=O)N[C@H](C(=O)N[C@@H](Cc1ccccc1)C(=O)N[C@]1(C)CCCCCCC=CCCC[C@@](C)(C(=O)N[C@@H](CO)C(=O)N[C@@H](C)C(=O)N[C@@H](CO)C(N)=O)NC(=O)[C@H](CC(C)C)NC(=O)[C@H](CCC(N)=O)NC(=O)[C@H](C)NC(=O)[C@H](Cc2c[nH]c3ccccc23)NC(=O)[C@H](Cc2ccc(O)cc2)NC(=O)[C@H](C(C)C)NC1=O)[C@@H](C)O (single isomer, unassigned) [compound 144]	4
CC(=O)N[C@@H](C)C(=O)N[C@@H](CC(C)C)C(=O)N[C@H](C(=O)N[C@@H](Cc1ccccc1)C(=O)N[C@]1(C)CCCCCCC=CCCC[C@@](C)(C(=O)N[C@@H](CO)C(=O)N[C@@H](C)C(=O)N[C@@H](C)C(=O)N[C@H](C)C(N)=O)NC(=O)[C@H](CC2CCC2)NC(=O)[C@H](CCC(N)=O)NC(=O)[C@H](C)NC(=O)[C@H](Cc2c[nH]c3ccccc23)NC(=O)[C@H](Cc2ccc(O)cc2)NC(=O)[C@H](CCC(=O)O)NC1=O)[C@@H](C)O (single isomer, unassigned) [compound 355]	11
CC(=O)N[C@@H](CC(C)C)C(=O)N[C@H](C(=O)N[C@@H](Cc1ccccc1)C(=O)N[C@]1(C)CCCCCC/C=C/CCC[C@@](C)(C(=O)N[C@@H](C)C(=O)N[C@@H](C)C(=O)N[C@@H](C)C(=O)N[C@@H](C)C(=O)N[C@@H](C)C(=O)N[C@H](C)C(N)=O)NC(=O)[C@H](CC2CCC2)NC(=O)[C@H](CCC(N)=O)NC(=O)[C@H](CO)NC(=O)[C@H](Cc2c[nH]c3ccccc23)NC(=O)[C@H](Cc2ccc(O)cc2)NC(=O)[C@H](CCC(=O)O)NC1=O)[C@@H](C)O [compound 351]	13
CC(=O)N[C@@H](CC(C)C)C(=O)N[C@H](C(=O)N[C@@H](Cc1ccccc1)C(=O)N[C@]1(C)CCCCCCC=CCCC[C@@](C)(C(=O)N[C@@H](CO)C(=O)N[C@@H](C)C(=O)N[C@@H](C)C(N)=O)NC(=O)[C@H](CC(C)C)NC(=O)[C@H](C)NC(=O)[C@H](C(C)C)NC(=O)[C@H](Cc2c[nH]c3ccccc23)NC(=O)[C@H](Cc2ccc(O)cc2)NC(=O)[C@H](C)NC1=O)[C@@H](C)O [compound 196] (Ac-LTF[R8]AYWVAL[S5]SAA-NH2; staple 4-11)	4
CC(=O)N[C@@H](C)C(=O)N[C@@H](C)C(=O)N[C@@H](CC(C)C)C(=O)N[C@H](C(=O)N[C@@H](Cc1ccccc1)C(=O)N[C@]1(C)CCCCCCC=CCCC[C@@](C)(C(=O)N[C@@H](CO)C(=O)N[C@@H](C)C(=O)N[C@@H](C)C(=O)N[C@@H](C)C(=O)N[C@H](C)C(N)=O)NC(=O)[C@H](CC2CCC2)NC(=O)[C@H](CCC(N)=O)NC(=O)[C@H](C)NC(=O)[C@H](Cc2c[nH]c3ccccc23)NC(=O)[C@H](Cc2ccc(O)cc2)NC(=O)[C@H](CCC(=O)O)NC1=O)[C@@H](C)O (single isomer, unassigned) [compound 359]	11
CC(=O)N[C@@H](CC(C)C)C(=O)N[C@H](C(=O)N[C@@H](Cc1ccccc1)C(=O)N[C@]1(C)CCCCCCC=CCCC[C@@](C)(C(=O)N[C@@H](C)C(=O)N[C@@H](C)C(=O)N[C@@H](C)C(=O)N[C@@H](C)C(=O)N[C@@H](C)C(=O)N[C@H](C)C(N)=O)NC(=O)[C@H](CC(C)C)NC(=O)[C@H](CCC(N)=O)NC(=O)[C@H](C)NC(=O)[C@H](Cc2c[nH]c3cc(Cl)ccc23)NC(=O)[C@H](Cc2ccc(O)cc2)NC(=O)[C@H](C)NC1=O)[C@@H](C)O (single isomer, unassigned) [compound 338]	23
CC(=O)N[C@@H](CC(C)C)C(=O)N[C@H](C(=O)N[C@@H](Cc1ccccc1)C(=O)N[C@]1(C)CCCCCCC=CCCC[C@@](C)(C(=O)N[C@@H](CO)C(=O)N[C@H](C(=O)NCC(N)=O)C(C)C)NC(=O)[C@H](CC(C)C)NC(=O)[C@H](CCC(N)=O)NC(=O)[C@H](C)NC(=O)[C@H](Cc2c[nH]c3ccccc23)NC(=O)[C@H](Cc2ccc(O)cc2)NC(=O)[C@H](C)NC1=O)[C@@H](C)O [compound 123] (Ac-LTF[R8]AYWAQL[S5]SVG-NH2; staple 4-11)	1
CC(=O)N[C@@H](CC(C)C)C(=O)N[C@H](C(=O)N[C@@H](Cc1ccc(F)c(F)c1)C(=O)N[C@]1(C)CCCCCCC=CCCC[C@@](C)(C(=O)N[C@@H](CO)C(=O)N[C@@H](C)C(=O)N[C@@H](C)C(N)=O)NC(=O)[C@H](CC(C)C)NC(=O)[C@H](CCC(N)=O)NC(=O)[C@H](C)NC(=O)[C@H](Cc2c[nH]c3ccccc23)NC(=O)[C@H](Cc2ccc(O)cc2)NC(=O)[C@H](CCC(=O)O)NC1=O)[C@@H](C)O (single isomer, unassigned) [compound 158]	1.67

* * *

Tested on: SJSA-1 cells
procedure_summary: Cell lysis by peptidomimetic macrocycles (LDH release)
Type: cell-based
run_parameters: 25 μM, SJSA-1, 1 h
Experimental: SJSA-1 cells were plated out one day in advance in clear flat-bottom plates (Costar, catalog number 353072) at 7500 cells/well with 100 ul/well of growth media, leaving row H columns 10-12 empty for media alone. On the day of the assay, media was exchanged with RPMI 1% FBS media, 90 uL of media per well. […] Cell plates were incubated for 1 hour at 37° C. […] LDH release is measured using the LDH cytotoxicity assay kit from Caymen, catalog #1000882.
Bridge positions count the residues as written; N and C are the ends. Square brackets hold non-standard residues; d marks the D form. Peptide text beside a SMILES is read from it. R8 = C=CCCCCCC[C@@](C)(N)C(=O)O; S5 = C=CCCC[C@](C)(N)C(=O)O; Nle = CCCC[C@H](N)C(=O)O
# reported 25 μM % Lysed cells (1 h LDH); entries follow

molecule	assayed_system	25 μM % Lysed cells (1 h LDH), %
CCCC[C@H](NC(=O)[C@H](C)NC(=O)[C@H](C)NC(=O)[C@]1(C)CCCC=CCCCCCC[C@@](C)(NC(=O)[C@H](Cc2ccccc2)NC(=O)[C@@H](NC(=O)[C@H](CC(C)C)NC(C)=O)[C@@H](C)O)C(=O)N[C@@H](C)C(=O)N[C@@H](Cc2ccc(O)cc2)C(=O)N[C@@H](Cc2c[nH]c3ccccc23)C(=O)N[C@@H](C)C(=O)N[C@@H](CCC(N)=O)C(=O)N[C@@H](CC(C)C)C(=O)N1)C(=O)N[C@H](C)C(N)=O (single isomer, unassigned)	SJSA-1 cells	1
CCCC[C@H](NC(=O)[C@H](C)NC(=O)[C@H](CO)NC(=O)[C@]1(C)CCCC=CCCCCCC[C@@](C)(NC(=O)[C@H](Cc2ccccc2)NC(=O)[C@@H](NC(=O)[C@H](CC(C)C)NC(C)=O)[C@@H](C)O)C(=O)N[C@@H](C)C(=O)N[C@@H](Cc2ccc(O)cc2)C(=O)N[C@@H](Cc2c[nH]c3ccccc23)C(=O)N[C@@H](C)C(=O)N[C@@H](CCC(N)=O)C(=O)N[C@@H](CC(C)C)C(=O)N1)C(N)=O [compound 3] (Ac-LTF[R8]AYWAQL[S5]SA[Nle]-NH2; staple 4-11)	SJSA-1 cells	1
